From: ChEMBL document CHEMBL3877241

Target: Histone deacetylase 8 (Homo sapiens)
Sequence (Q9BY41 whole entry, the tested form may be a part): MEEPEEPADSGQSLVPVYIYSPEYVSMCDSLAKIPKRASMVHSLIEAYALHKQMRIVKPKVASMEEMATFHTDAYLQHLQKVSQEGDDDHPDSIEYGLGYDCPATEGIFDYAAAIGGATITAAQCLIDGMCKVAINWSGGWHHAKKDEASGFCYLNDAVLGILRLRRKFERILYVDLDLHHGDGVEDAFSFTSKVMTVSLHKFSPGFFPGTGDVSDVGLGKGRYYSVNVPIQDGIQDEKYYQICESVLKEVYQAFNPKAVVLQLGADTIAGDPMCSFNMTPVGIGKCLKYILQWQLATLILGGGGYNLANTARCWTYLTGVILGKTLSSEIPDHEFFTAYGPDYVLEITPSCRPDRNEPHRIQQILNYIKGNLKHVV
Assay: Inhibition of human recombinant C-terminal His-tagged HDAC8 (1 to 377 residues) expressed in insect cells preincubated with enzyme followed by fluorogenic Arg-His-Lys(Ac)-Lys(Ac)-AMC substrate addition measured after 2 hrs by fluorescence assay
Experimental readout: IC50 (nM)
Please respond with the number in nM and leave the unit unwritten.

Query: Given "O=C(CCCCCCOc1ccc2cc1COC/C=C/COCc1cccc(c1)-c1ccnc(n1)N2)NO" , state its recorded IC50.
Response: 740

* * *

Assay: Apparent intrinsic clearance in rat liver microsomes at 3 uM preincubated for 5 mins followed by NADPH addition measured after 45 mins by LC-MS/MS analysis
Assay type: ADME
Details: read-out: CLH(app)
Experimental readout: CLint scaled at 3 µM

Query: Given "O=C(CCCCCCCOc1ccc2cc1COC/C=C/COCc1cccc(c1)-c1ccnc(n1)N2)NO" , state its recorded CLint scaled at 3 µM.
Response: 200 to 225 mL/min/kg

Query: Given "O=C(CCCCCCOc1ccc2cc1COC/C=C/COCc1cccc(c1)-c1ccnc(n1)N2)NO" , state its recorded CLint scaled at 3 µM.
Response: 178 to 272 mL/min/kg

* * *

Target: Histone deacetylase 11 (Homo sapiens, UniProt Q96DB2)
Sequence (Q96DB2 whole entry, the tested form may be a part): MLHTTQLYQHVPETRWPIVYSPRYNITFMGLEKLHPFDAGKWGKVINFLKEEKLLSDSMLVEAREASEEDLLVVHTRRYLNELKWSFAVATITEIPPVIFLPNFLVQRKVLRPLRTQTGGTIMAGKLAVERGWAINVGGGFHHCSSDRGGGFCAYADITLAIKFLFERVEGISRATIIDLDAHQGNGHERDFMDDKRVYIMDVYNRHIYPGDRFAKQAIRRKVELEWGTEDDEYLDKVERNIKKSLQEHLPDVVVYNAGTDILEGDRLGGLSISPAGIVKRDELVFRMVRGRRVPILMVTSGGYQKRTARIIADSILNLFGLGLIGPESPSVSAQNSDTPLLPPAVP
Assay: Inhibition of human recombinant N-terminal His-tagged HDAC11 (1 to 347 residues) expressed in baculovirus infected insect cells preincubated with enzyme followed by fluorogenic Arg-His-Lys-Lys(Ac)-AMC substrate addition measured after 2 hrs by fluorescence assay relative to control
Experimental readout: IC50 (nM)
Please respond with the number in nM and leave the unit unwritten.

Query: Given "O=C(CCCCCCOc1ccc2cc1COC/C=C/COCc1cccc(c1)-c1ccnc(n1)N2)NO" , state its recorded IC50.
Response: 930

* * *

Target: Mast/stem cell growth factor receptor Kit (Homo sapiens)
Experimental readout: IC50

Query: Given "O=C(CCCCCCOc1ccc2cc1COC/C=C/COCc1cccc(c1)-c1ccnc(n1)N2)NO" , state its recorded IC50.
Response: 1 to 10 µM

* * *

Assay: Antiproliferative activity against human MCF7 cells after 72 hrs by MTT assay
Type: functional, cell-based
Settings: MCF7, 72 h
pIC50: −log10 of the molar value.
Binary call on pIC50: true (1) from 6 upward, false (0) beneath that.

Query: Hi team, for "O=C(CCCOc1ccc2cc1COC/C=C/COCc1cccc(c1)-c1ccnc(n1)N2)NO" , is the recorded pIC50 at or above 6?
Response: false (0)

Query: Hi team, for "C1=N/C2=N/c3ccc(OCCN4CCCC4)c(c3)COC/C=C/COCc3cccc(c3)C(=C1)N2" , is the recorded pIC50 at or above 6?
Response: true (1)

Query: Hi team, for "O=C(CCCCOc1ccc2cc1COC/C=C/COCc1cccc(c1)-c1ccnc(n1)N2)NO" , is the recorded pIC50 at or above 6?
Response: false (0)

Query: Hi team, for "O=C(NO)C1CCN(CCOc2ccc3cc2COC/C=C/COCc2cccc(c2)-c2ccnc(n2)N3)CC1" , is the recorded pIC50 at or above 6?
Response: false (0)

* * *

Biological target: Mitogen-activated protein kinase 10 (Homo sapiens, UniProt P53779)
Sequence (P53779 whole entry, the tested form may be a part): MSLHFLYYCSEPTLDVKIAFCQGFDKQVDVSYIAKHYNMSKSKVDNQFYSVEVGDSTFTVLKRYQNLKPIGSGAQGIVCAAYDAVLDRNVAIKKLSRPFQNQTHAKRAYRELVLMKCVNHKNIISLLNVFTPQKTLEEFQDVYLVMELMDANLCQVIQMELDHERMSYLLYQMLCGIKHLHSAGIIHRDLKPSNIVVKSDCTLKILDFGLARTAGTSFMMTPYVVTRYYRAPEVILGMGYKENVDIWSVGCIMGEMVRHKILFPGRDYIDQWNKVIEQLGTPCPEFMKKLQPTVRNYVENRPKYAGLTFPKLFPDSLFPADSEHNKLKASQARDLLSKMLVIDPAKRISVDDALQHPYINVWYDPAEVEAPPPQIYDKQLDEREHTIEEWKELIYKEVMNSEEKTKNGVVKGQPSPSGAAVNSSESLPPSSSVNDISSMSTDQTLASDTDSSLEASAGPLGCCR
Test: Inhibition of full length human MAPK10 (V28 to Q422 residues) expressed in mammalian expression system by KINOMEScan assay
pIC50: −log10 of the molar value.
Experimental readout: pIC50

Query: Given "O=C(CCCCCCOc1ccc2cc1COC/C=C/COCc1cccc(c1)-c1ccnc(n1)N2)NO" , state its recorded pIC50.
Response: 5.00 to 6.00

* * *

Target: Mast/stem cell growth factor receptor Kit (Homo sapiens, UniProt P10721, T670I/V559D)
Sequence (P10721 26-976 V559D/T670I limits assumed): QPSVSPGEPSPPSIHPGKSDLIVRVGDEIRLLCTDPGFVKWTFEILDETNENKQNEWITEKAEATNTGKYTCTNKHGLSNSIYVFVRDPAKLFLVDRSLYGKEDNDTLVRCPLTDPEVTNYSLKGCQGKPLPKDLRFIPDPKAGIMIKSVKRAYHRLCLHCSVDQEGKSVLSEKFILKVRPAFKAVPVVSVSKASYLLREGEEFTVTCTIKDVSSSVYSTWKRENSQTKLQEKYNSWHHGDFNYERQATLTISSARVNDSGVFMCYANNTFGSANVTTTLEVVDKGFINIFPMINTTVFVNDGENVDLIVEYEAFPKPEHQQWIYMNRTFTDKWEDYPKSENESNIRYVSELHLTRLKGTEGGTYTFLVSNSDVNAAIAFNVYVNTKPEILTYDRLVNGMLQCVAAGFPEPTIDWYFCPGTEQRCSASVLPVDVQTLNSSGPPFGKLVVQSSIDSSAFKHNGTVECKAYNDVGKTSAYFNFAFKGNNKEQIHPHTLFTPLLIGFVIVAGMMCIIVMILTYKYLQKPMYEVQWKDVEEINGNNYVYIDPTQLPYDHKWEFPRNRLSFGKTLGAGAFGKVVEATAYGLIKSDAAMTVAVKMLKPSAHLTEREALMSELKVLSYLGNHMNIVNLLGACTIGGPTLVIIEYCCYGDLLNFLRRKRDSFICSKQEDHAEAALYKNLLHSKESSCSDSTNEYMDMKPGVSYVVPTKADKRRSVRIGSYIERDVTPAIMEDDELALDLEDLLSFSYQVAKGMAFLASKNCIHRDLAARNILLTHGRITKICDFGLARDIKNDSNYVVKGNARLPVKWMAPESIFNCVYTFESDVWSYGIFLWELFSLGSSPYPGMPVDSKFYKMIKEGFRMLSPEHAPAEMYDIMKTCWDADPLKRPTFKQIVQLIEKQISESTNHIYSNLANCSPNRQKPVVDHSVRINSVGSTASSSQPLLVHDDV
Test: Inhibition of human KIT (Y545 to D952 residues) V559D/T670I double mutant expressed in bacterial expression system by KINOMEScan assay
Experimental readout: IC50

Query: Given "O=C(CCCCCCOc1ccc2cc1COC/C=C/COCc1cccc(c1)-c1ccnc(n1)N2)NO" , state its recorded IC50.
Response: 1 to 10 µM

* * *

Assay: Therapeutic index, ratio of IC50 for mouse TAMH cells to IC50 for human cancer cells
Settings: cancer cell lines
Would you mind telling me the reported selectivity ratio of each entry?
Lab note: write the figure by itself, no unit.

Query: Given "O=C(CCCCCCCOc1ccc2cc1COC/C=C/COCc1cccc(c1)-c1ccnc(n1)N2)NO" , state its recorded selectivity ratio.
Response: 1.8

Query: Given "O=C(CCCCCCOc1ccc2cc1COC/C=C/COCc1cccc(c1)-c1ccnc(n1)N2)NO" , state its recorded selectivity ratio.
Response: 8.7

* * *

Test: Half life in rat liver microsomes at 3 uM preincubated for 5 mins followed by NADPH addition by LC-MS/MS analysis
Type: ADME
Experimental readout: half-life at 3 µM

Query: Given "O=C(CCCCCCOc1ccc2cc1COC/C=C/COCc1cccc(c1)-c1ccnc(n1)N2)NO" , state its recorded half-life at 3 µM.
Response: 17.3 to 26.3 min

Query: Given "O=C(CCCCCCCOc1ccc2cc1COC/C=C/COCc1cccc(c1)-c1ccnc(n1)N2)NO" , state its recorded half-life at 3 µM.
Response: 21 to 23.4 min

* * *

Would you mind telling me the reported IC50 of each entry?
Test: Antiproliferative activity against human MCF7 cells after 72 hrs by MTT assay
Type: functional, cell-based
Conditions: MCF7, 72 h
Please respond with the number in µM and leave the unit unwritten.

Query: Given "CN1CCc2c(c3ccccc3n2Cc2ccc(C(=O)NO)cc2)C1" , state its recorded IC50.
Response: 3.7

Query: Given "O=C(CCCCCOc1ccc2cc1COC/C=C/COCc1cccc(c1)-c1ccnc(n1)N2)NO" , state its recorded IC50.
Response: 4.81

Query: Given "O=C(NO)c1ccc(NCCOc2ccc3cc2COC/C=C/COCc2cccc(c2)-c2ccnc(n2)N3)cc1" , state its recorded IC50.
Response: 3.84

Query: Given "O=C(O)CCCCCCCOc1ccc2cc1COC/C=C/COCc1cccc(c1)-c1ccnc(n1)N2" , state its recorded IC50.
Response: 27.7

Query: Given "O=C(CCCCCCCOc1ccc2cc1COC/C=C/COCc1cccc(c1)-c1ccnc(n1)N2)NO" , state its recorded IC50.
Response: 9.48

Query: Given "O=C(O)CCCCCCOc1ccc2cc1COC/C=C/COCc1cccc(c1)-c1ccnc(n1)N2" , state its recorded IC50.
Response: 20

* * *

Target: Tyrosine-protein kinase JAK2 (Homo sapiens, UniProt O60674)
Sequence (O60674 whole entry): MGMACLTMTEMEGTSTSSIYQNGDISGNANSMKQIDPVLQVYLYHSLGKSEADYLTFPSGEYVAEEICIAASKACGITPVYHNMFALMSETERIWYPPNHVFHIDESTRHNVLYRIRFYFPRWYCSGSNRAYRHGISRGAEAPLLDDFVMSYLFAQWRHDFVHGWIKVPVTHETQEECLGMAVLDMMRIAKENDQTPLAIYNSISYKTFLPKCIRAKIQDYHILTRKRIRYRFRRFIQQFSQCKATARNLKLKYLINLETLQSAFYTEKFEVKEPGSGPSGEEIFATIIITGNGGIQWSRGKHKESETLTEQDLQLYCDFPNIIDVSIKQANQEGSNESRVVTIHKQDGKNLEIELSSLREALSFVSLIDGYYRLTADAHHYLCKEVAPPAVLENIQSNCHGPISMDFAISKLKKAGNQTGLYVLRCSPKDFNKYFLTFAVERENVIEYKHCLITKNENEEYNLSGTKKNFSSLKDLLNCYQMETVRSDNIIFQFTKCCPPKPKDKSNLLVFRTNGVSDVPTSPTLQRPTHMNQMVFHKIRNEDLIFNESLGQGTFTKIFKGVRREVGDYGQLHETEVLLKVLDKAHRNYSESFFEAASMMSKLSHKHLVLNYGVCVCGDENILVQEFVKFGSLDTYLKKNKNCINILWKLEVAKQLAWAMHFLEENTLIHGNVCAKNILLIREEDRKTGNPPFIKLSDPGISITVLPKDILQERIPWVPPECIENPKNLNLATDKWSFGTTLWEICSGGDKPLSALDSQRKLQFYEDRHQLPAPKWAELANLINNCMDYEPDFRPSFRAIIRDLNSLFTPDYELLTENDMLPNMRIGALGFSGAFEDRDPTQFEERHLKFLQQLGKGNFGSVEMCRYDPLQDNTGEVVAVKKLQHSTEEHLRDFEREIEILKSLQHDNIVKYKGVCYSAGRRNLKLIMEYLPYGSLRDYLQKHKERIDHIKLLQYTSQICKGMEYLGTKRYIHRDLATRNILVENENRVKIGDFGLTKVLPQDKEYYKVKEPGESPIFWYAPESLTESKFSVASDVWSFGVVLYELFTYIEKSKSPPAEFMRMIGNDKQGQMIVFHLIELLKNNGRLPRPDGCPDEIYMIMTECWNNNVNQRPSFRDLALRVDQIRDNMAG
Assay: Inhibition of JAK2 (unknown origin) preincubated for 20 mins followed by [33P]ATP addition measured after 120 mins by Hotspot assay
Would you mind telling me the reported log10 IC50 of each entry?
Recorded IC50 (log10, nM)

Query: Given "O=C(CCCCCC(=O)Nc1ccc(NCCOc2ccc3cc2COC/C=C/COCc2cccc(c2)-c2ccnc(n2)N3)cc1)NO" , state its recorded log10 IC50.
Response: 0.84

Query: Given "O=C(NO)c1ccc(NCCOc2ccc3cc2COC/C=C/COCc2cccc(c2)-c2ccnc(n2)N3)cc1" , state its recorded log10 IC50.
Response: 0.23

Query: Given "O=C(CCCCCCC(=O)Nc1ccc(NCCOc2ccc3cc2COC/C=C/COCc2cccc(c2)-c2ccnc(n2)N3)cc1)NO" , state its recorded log10 IC50.
Response: 1.48

Query: Given "O=C(CCCCCCOc1ccc2cc1COC/C=C/COCc1cccc(c1)-c1ccnc(n1)N2)NO" , state its recorded log10 IC50.
Response: 0.15

Query: Given "O=C(O)CCCCCCOc1ccc2cc1COC/C=C/COCc1cccc(c1)-c1ccnc(n1)N2" , state its recorded log10 IC50.
Response: 0.41

* * *

Target: Tyrosine-protein kinase JAK2 (Homo sapiens)
Assay: Inhibition of JAK2 (unknown origin) preincubated for 20 mins followed by [33P]ATP addition measured after 120 mins by Hotspot assay
I'd appreciate it if you marked entries satisfied when IC50 is lower than 5 nM and not satisfied when it is not.

Query: Find out if reported IC50 for "O=C(NO)C1CCN(CCOc2ccc3cc2COC/C=C/COCc2cccc(c2)-c2ccnc(n2)N3)CC1" is less than 5 nM
Response: satisfied

Query: Find out if reported IC50 for "O=C(NO)c1ccc(OCCOc2ccc3cc2COC/C=C/COCc2cccc(c2)-c2ccnc(n2)N3)cc1" is less than 5 nM
Response: satisfied

Query: Find out if reported IC50 for "O=C(CCCCOc1ccc2cc1COC/C=C/COCc1cccc(c1)-c1ccnc(n1)N2)NO" is less than 5 nM
Response: satisfied

Query: Find out if reported IC50 for "O=C(O)CCCCCCC(=O)Nc1ccc(NCCOc2ccc3cc2COC/C=C/COCc2cccc(c2)-c2ccnc(n2)N3)cc1" is less than 5 nM
Response: satisfied

Query: Find out if reported IC50 for "O=C(CCCCCOc1ccc2cc1COC/C=C/COCc1cccc(c1)-c1ccnc(n1)N2)NO" is less than 5 nM
Response: satisfied

Query: Find out if reported IC50 for "O=C(NO)c1cccc(NCCOc2ccc3cc2COC/C=C/COCc2cccc(c2)-c2ccnc(n2)N3)c1" is less than 5 nM
Response: not satisfied

Query: Find out if reported IC50 for "O=C(O)CCCOc1ccc2cc1COC/C=C/COCc1cccc(c1)-c1ccnc(n1)N2" is less than 5 nM
Response: not satisfied
